- Test summary: Quantitative High-Throughput drug screen in 47 multiple myeloma cell lines against the NCATS MIPE library collection: RPMI8226_ATCC cell viability assay (AID 1919871); note: nearly all actives have a fitted effect of over 30% in size
- Experimental context: RPMI8226 myeloma viability, CellTiter-Glo ATP luminescence, 48 h; series mostly up to 45.8 µM
Records with an inconclusive call do not appear. Calls of active or inactive are those of the source. Calls come from the whole dose curve; as a rule, active = well fitted cell-killing curve with a large enough effect; inconclusive = small, poorly fitted or top-dose-only effect, or effect the other way; inactive = no such curve, though single readings can be large or run the other way.
Field 'call' accepts active, inactive

As a guide, the following entries are already answered.
| Compound | Group label |
| --- | --- |
| Cc1noc(-c2ccc(CSCCC(=O)O)cc2)c1NC(=O)OC(C)c1ccccc1Cl (stereo unspecified) | inactive |
| O=C(C[C@@H]1CC=CCCC(=O)O[C@H](c2ccccc2)CNC1=O)NCc1ccc(Cl)cc1 | inactive |
| c1cc(CN2CCCNCCNCCCNCC2)ccc1CN1CCCNCCNCCCNCC1 | inactive |
| COc1ccc2cc([S+]([O-])Cc3ncc(C)c(OC)c3C)nc2c1 | inactive |
| CCOC(=O)[C@@H](N)Cc1ccc(-c2cc(O[C@H](c3ccc(Cl)cc3-n3ccc(C)n3)C(F)(F)F)nc(N)n2)cc1 | active |
| Cn1cc(CNCC2CCN(c3ncc(C(=O)NO)cn3)CC2)c2ccccc21 | active |

// query Outcome? C=C1C[C@@]2(O)O[C@@]3(C[C@H]2C(C)C)[C@H](C)CC[C@H]13
// result inactive

// query Outcome? O=C(O)C(=O)Nc1cccc(C2=NN=N[N]2)c1
// result inactive

// query Outcome? C[C@H]1O[C@H](O[C@H]2[C@H](O)[C@@H](O)[C@@H](O[C@H]3[C@H](O)[C@@H](O)C(O)O[C@H]3CO)O[C@H]2CO)[C@H](O)[C@@H](O)[C@H]1N[C@H]1C=C(CO)[C@@H](O)[C@H](O)[C@@H]1O (stereo partly specified)
// result inactive

// query Outcome? NC(=O)N1CCC(CC(=O)N2CCC([C@H]3c4ncc(Br)cc4CCc4cc(Cl)cc(Br)c43)CC2)CC1
// result active

// query Outcome? CN(C)CCN1C(=O)c2cccc3cc(N)cc(c23)C1=O
// result active

// query Outcome? CC[C@H]1OC(=O)[C@H](C)[C@@H](O[C@H]2C[C@@](C)(OC)[C@@H](O)[C@H](C)O2)[C@H](C)[C@@H](O[C@@H]2O[C@@H](C)C[C@H](N(C)C)[C@@H]2O)[C@](C)(O)C[C@@H](C)C(=O)[C@H](C)[C@@H](O)[C@]1(C)O
// result inactive

// query Outcome? COc1ccc(S(=O)(=O)Nc2cc(-c3c(O)ccc4ccccc34)c(O)c3ccccc23)cc1
// result active

// query Outcome? C[C@@]12C(=O)OC(=O)[C@@]1(C)C1CCC2O1
// result active

// query Outcome? CCC(C(=O)O)C1CCC(C)C(C(C)C(O)C(C)C(=O)C(CC)C2OC3(C=CC(O)[C@@]4(CC[C@](C)(C5CC[C@@](O)(CC)C(C)O5)O4)O3)C(C)CC2C)O1 (stereo partly specified)
// result active

// query Outcome? CCC[C@H]1C[C@H](C(=O)N[C@@H]([C@@H]2O[C@@H](SC)[C@@H](O)[C@@H](O)[C@@H]2O)[C@H](C)Cl)N(C)C1
// result inactive

Ref: PubChem BioAssay (NCATS)
